assay explanation: Microsomal stability assay, mouse liver microsomes
Assay type: in vitro ADME
condition context: pH 7.4; mouse liver microsomes 0.5 mg/mL, 1 mM NADPH, 1 μM compound; read-out: Microsomal Stability t1/2 Mouse
Each record here notes measured half-life at 1 μM.
Kindly answer with a numeric value in h, unit omitted.

- molecule: "CNC(=O)c1cncc(Cn2nc(C)c(NC(=O)c3ccc(COc4ccc(C(F)(F)F)cc4)cc3)c2C)c1 [Compound E3a]"
  half-life at 1 μM (h): 2.4
- molecule: "CNC(=O)c1cccc(Cn2nc(C)c(NC(=O)c3ccc(COc4ccc(C(F)(F)F)cc4C)cc3)c2C)c1 [Compound D10]"
  half-life at 1 μM (h): 0.883
- molecule: "CC(=O)Nc1cccc(Cn2nc(C)c(NC(=O)c3ccc(COc4ccc(C(F)(F)F)cc4)cc3)c2C)c1 [Compound D11]"
  half-life at 1 μM (h): 0.123
- molecule: "CC(=O)Nc1cccc(Cn2nc(C)c(NC(=O)c3ccc(COc4ccc(C(F)(F)F)cc4C)cc3)c2C)c1 [Compound D12]"
  half-life at 1 μM (h): 0.162
- molecule: "CNC(=O)c1cccc(Cn2nc(C)c(NC(=O)c3ccc(COc4ccc(C(F)(F)F)cc4C)cc3)c2C)n1 [Compound E1b]"
  half-life at 1 μM (h): 1.25
- molecule: "CNC(=O)c1cc(Cn2nc(C)c(NC(=O)c3ccc(COc4ccc(C(F)(F)F)cc4)cc3)c2C)ccn1 [Compound E2a]"
  half-life at 1 μM (h): 1.07

half-life at 1 μM in this record for CNC(=O)c1cccc(Cn2nc(C)c(NC(=O)c3ccc(COc4ccc(C(F)(F)F)cc4)cc3)c2C)c1 [Compound D9c] : 1

The molecule listed as CNC(=O)c1ccnc(Cn2nc(C)c(NC(=O)c3ccc(COc4ccc(C(F)(F)F)cc4)cc3)c2C)c1 [Compound E4a] shows half-life at 1 μM equal to 2.52

The reported value for CNC(=O)c1cncc(Cn2nc(C)c(NC(=O)c3ccc(COc4ccc(C(F)(F)F)cc4C)cc3)c2C)c1 [Compound E3b] in terms of half-life at 1 μM is 2.32

half-life at 1 μM reported for this molecule CNC(=O)c1cc(Cn2nc(C)c(NC(=O)c3ccc(COc4ccc(C(F)(F)F)cc4C)cc3)c2C)ccn1 [Compound E2b] : 1.48

For CNC(=O)c1cccc(Cn2nc(C)c(NC(=O)c3ccc(COc4ccc(C(F)(F)F)cc4)cc3)c2C)n1 [Compound E1a] the molecule record lists half-life at 1 μM as 1.08

Consider CNC(=O)c1ccnc(Cn2nc(C)c(NC(=O)c3ccc(COc4ccc(C(F)(F)F)cc4C)cc3)c2C)c1 [Compound E4b] . Its measured half-life at 1 μM is 2.1
